Attribution: PubChem BioAssay (NCI)

tested on: M14 melanoma; assay: NCI-60 one-dose screen, 48 h; details: 10 µM unless noted
About 83,000 compounds went through this panel and 20% of them were active in at least one assay; those are over-represented in the sample as a whole. Active and inactive are the calls of the source. Rule for the calls: active = growth percent below 10; inactive = the rest.
Tick one outcome: YES for active, NO for inactive

CC(=O)Nc1ccc(C=Nc2ccc3ccccc3c2)cc1 : NO

What is the recorded call for this compound in the test? `C=C(C)[C@@H]1CC[C@]2(COC(=O)c3ccccc3C(=O)O)CC[C@]3(C)[C@H](CC[C@@H]4[C@@]5(C)CC[C@H](OC(=O)c6ccccc6C(=O)O)C(C)(C)[C@@H]5CC[C@]43C)[C@@H]12`
NO
